System: Cholinesterase (Homo sapiens, UniProt P06276) | Read-out: pIC50
Sequence (P06276 whole entry): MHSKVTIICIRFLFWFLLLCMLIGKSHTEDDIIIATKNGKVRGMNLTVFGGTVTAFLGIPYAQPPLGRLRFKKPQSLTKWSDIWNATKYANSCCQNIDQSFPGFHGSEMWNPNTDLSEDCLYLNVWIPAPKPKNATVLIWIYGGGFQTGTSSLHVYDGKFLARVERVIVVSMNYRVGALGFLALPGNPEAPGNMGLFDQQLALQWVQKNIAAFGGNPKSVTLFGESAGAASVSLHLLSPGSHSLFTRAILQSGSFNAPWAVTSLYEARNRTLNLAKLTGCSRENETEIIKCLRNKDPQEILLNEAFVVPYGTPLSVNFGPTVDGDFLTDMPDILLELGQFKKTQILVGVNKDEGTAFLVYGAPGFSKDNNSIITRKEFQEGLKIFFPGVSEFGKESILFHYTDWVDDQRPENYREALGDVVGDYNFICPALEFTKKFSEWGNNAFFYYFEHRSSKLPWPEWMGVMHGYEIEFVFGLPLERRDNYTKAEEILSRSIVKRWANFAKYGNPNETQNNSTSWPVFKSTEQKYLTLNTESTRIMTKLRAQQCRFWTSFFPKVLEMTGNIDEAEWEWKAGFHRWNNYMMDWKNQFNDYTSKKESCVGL
Quick note: pIC50 values are minus log10 of concentrations in mol/L.

# annotated cases, reported pIC50 shown
COc1cccc2cc[n+](-c3cccc(C)c3)cc12 ... 4.51
COc1cccc2cc[n+](-c3ccc(Br)cc3)cc12 ... 4.67
COc1cccc2c1C=[N+](c1c(F)cccc1F)CC2 ... 3.98
COc1ccc([N+]2=Cc3c(cccc3OC)CC2)cc1 ... 3.95
COc1cccc2c1C=[N+](c1ccccc1Cl)CC2 ... 3.72

Please look at the following molecule next.
Field: pIC50 (Cholinesterase (Homo sapiens, UniProt P06276)). Entry: COc1cccc2c1C=[N+](c1ccc(C(F)(F)F)cc1)CC2
3.66

====

Consider compounds characterized by their pIC50 with Cholinesterase (Homo sapiens, UniProt P06276).
Note: pIC50 values are expressed as the negative base-10 logarithm of concentration in M.

COc1cccc2c1C=[N+](c1ccc(F)cc1)CC2 ... 3.95
COc1cccc(-[n+]2ccc3cccc(OC)c3c2)c1 ... 4.01
COc1cccc2cc[n+](-c3ccccc3F)cc12 ... 4.09
COc1cccc2cc[n+](-c3ccc(I)cc3F)cc12 ... 4.05
C[n+]1cc2c3c(ccc2c2ccc4cc5c(cc4c21)OCO5)OCO3 ... 5.15
COc1cccc2cc[n+](-c3ccccc3)cc12 ... 4.10

Param readout = pIC50; param system = Cholinesterase (Homo sapiens, UniProt P06276); param query = COc1cccc2cc[n+](-c3ccccc3Cl)cc12 ; response: value
4.17

Give pIC50 (Cholinesterase (Homo sapiens, UniProt P06276)) of the following compound: Brc1ccc(-[n+]2ccc3ccccc3c2)cc1
3.89

Recorded pIC50 for COc1cccc2c1C=[N+](c1ccc(C)cc1)CC2 with Cholinesterase (Homo sapiens, UniProt P06276), please?
4.33

// lookup pIC50 | system=Cholinesterase (Homo sapiens, UniProt P06276) | key= COc1ccc2c(c[n+](C)c3c4cc5c(cc4ccc23)OCO5)c1OC [CHELERYTHRINE]
5.07

What reported pIC50 corresponds to COc1ccc(-[n+]2ccc3cccc(OC)c3c2)cc1 on Cholinesterase (Homo sapiens, UniProt P06276)?
5.42

Hello, I am looking for reported pIC50 with Cholinesterase (Homo sapiens, UniProt P06276) for COc1cccc2c1C=[N+](c1cccc(C)c1)CC2 . Could you help?
4.44

Give pIC50 (Cholinesterase (Homo sapiens, UniProt P06276)) of the following compound: Brc1ccc([N+]2=Cc3ccccc3CC2)cc1
4.20

Could you share what pIC50 was measured for COc1cccc2cc[n+](-c3ccc(I)cc3)cc12 , tested on Cholinesterase (Homo sapiens, UniProt P06276)?
4.44

For Cholinesterase (Homo sapiens, UniProt P06276), provide pIC50 of COc1cccc2cc[n+](-c3ccccc3I)cc12 please.
4.43

Notebook entry, Cholinesterase (Homo sapiens, UniProt P06276) assay: pIC50 of COc1cccc2c1C=[N+](c1ccccc1I)CC2 = ?
4.54

Quick check: pIC50 on Cholinesterase (Homo sapiens, UniProt P06276), item COc1cccc2cc[n+](-c3ccccc3C#N)cc12 ?
4.23

====

# study-target: Acetylcholinesterase (Homo sapiens, UniProt P22303)
# Sequence (P22303 whole entry): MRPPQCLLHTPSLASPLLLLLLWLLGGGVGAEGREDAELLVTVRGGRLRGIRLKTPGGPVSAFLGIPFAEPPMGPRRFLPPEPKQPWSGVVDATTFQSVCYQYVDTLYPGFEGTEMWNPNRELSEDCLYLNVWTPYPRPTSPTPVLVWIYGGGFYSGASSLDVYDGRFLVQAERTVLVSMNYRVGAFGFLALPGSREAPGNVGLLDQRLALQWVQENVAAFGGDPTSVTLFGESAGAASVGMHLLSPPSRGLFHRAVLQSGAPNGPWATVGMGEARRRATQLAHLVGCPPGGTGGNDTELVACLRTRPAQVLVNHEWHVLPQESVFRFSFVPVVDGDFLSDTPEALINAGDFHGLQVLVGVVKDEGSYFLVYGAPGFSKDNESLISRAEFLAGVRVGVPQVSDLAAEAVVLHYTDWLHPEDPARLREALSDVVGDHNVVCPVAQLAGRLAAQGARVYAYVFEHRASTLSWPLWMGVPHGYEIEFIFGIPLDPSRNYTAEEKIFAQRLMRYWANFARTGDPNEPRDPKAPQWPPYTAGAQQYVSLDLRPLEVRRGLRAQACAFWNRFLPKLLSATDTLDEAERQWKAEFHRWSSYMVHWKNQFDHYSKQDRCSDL
observed-property: IC50

Recorded results for 2 molecules are shown here.
COc1cccc2cc[n+](-c3cccc(Br)c3)cc12 ... > 10 µM
COc1cccc2cc[n+](-c3cccc(I)c3)cc12 ... > 10 µM

We now examine a further molecule.
Bench note: what IC50 did COc1cccc2c1C=[N+](c1cccc(Br)c1)CC2 show?
> 10 µM
